# Target of assay: HLA-DP DPA1*01:03/DPB1*02:01 (Homo sapiens, UniProt P04440+P20036, A65V/A84D/A85E/K98E)
# Sequence (P20036 29-260): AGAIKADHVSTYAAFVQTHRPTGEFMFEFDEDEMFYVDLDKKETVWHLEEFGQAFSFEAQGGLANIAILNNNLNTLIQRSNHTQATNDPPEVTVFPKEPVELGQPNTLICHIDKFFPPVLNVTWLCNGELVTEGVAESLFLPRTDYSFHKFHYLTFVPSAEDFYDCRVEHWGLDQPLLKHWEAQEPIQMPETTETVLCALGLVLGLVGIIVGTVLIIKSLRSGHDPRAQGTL
# Sequence (P04440 30-258 A65V/A84D/A85E/K98E): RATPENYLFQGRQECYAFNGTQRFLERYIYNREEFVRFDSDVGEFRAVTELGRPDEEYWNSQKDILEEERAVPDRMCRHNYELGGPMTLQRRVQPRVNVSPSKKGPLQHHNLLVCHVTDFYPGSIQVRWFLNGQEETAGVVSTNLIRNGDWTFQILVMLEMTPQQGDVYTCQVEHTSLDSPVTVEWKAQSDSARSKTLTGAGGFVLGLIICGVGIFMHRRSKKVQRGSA
# Experiment: biochemical
# Type: binding
# Condition notes: read-out: Binding capacity/IC50 (nM) DPA1*01:03 DPB1*02:01
Ends that are not written are not given here.
Test readout: IC50

// recorded IC50 for SEELRSLYNTVATLYCVHQ-NH2 [p17(72-90)] : 67 nM

For IRYPLTFGWCFKLVPVDPREVEEA-NH2 [nef(133-156)] the substance record lists IC50 as 119 nM

The substance listed as IVALIIAIVVWTIV-NH2 [vpu(13-26)] has a reported IC50 of 29900 nM

The substance NYPIVQNLQGQMVHQAISPR-NH2 [p17(131-132)/p24(1-18)] showed IC50 equal to 55 nM

Query EAVRHFPRPWLHGL-NH2 [vpr(29-42)] yields IC50 of 2140 nM

The substance YAKMRSAHTNDVKQL-NH2 [RT(354-368)] showed IC50 equal to 687 nM

// IC50 value for VGSLQYLALTALITPKK-NH2 [vif(142-158)] : 76 nM

* * *

# Target of assay: HLA-DR DRB1*07:01 (Homo sapiens, UniProt P01903+P01911, A100R/A102G/A103Q/D57E/D86V/E43K/F76Y/K127E/L162R/M171V/P40G/Q125H/Q99D/R33Q/R42Y/R54Q/S133A/S66F/T210M/V115G/Y107V/Y59L/Y89S)
# Experiment: biochemical
# Assay type: binding
# Condition notes: read-out: Binding capacity/IC50 (nM) DRB1*07:01
Test readout: IC50 (nM)
The response must be a number in nM with no trailing unit.

In plain terms, CC[C@H](C)[C@H](NC(=O)[C@H](Cc1ccc(O)cc1)NC(=O)CNC(=O)[C@H](CO)NC(=O)[C@H](C)NC(=O)[C@@H](NC(=O)[C@H](Cc1c[nH]cn1)NC(=O)[C@@H](NC(=O)[C@H](C)NC(=O)[C@@H](NC(=O)[C@H](CC(C)C)NC(=O)[C@@H](NC(=O)[C@@H](NC(=O)[C@H](CCCCN)NC(=O)CNC(=O)[C@@H](N)CCC(=O)O)[C@@H](C)CC)[C@@H](C)CC)C(C)C)C(C)C)C(C)C)C(=O)N[C@@H](CCC(=O)O)C(N)=O has a documented IC50 of 70

Entry CC[C@H](C)[C@H](NC(=O)CNC(=O)[C@H](CCCCN)NC(=O)[C@H](Cc1c[nH]cn1)NC(=O)[C@H](C)NC(=O)[C@@H]1CCCN1C(=O)[C@@H](NC(=O)[C@H](Cc1c[nH]c2ccccc12)NC(=O)[C@H](CO)NC(=O)[C@H](CC(C)C)NC(=O)[C@H](Cc1ccc(O)cc1)NC(=O)[C@@H](NC(=O)[C@H](CCCCN)NC(=O)[C@H](CCC(=O)O)NC(=O)[C@@H](N)CCCCN)C(C)C)C(C)C)C(=O)NCC(=O)NCC(=O)N[C@@H](CC(N)=O)C(=O)N[C@@H](CCC(=O)O)C(N)=O ; IC50 = 6.3

Record CC[C@H](C)[C@H](NC(=O)[C@@H]1CCCN1C(=O)[C@H](CCC(=O)O)NC(=O)[C@@H](N)CCCCN)C(=O)N[C@H](C(=O)NCC(=O)N[C@@H](C)C(=O)N[C@@H](CCC(=O)O)C(=O)N[C@H](C(=O)N[C@@H](Cc1ccccc1)C(=O)N[C@@H](Cc1ccc(O)cc1)C(=O)N[C@H](C(=O)N[C@@H](CC(=O)O)C(=O)NCC(=O)N[C@@H](C)C(N)=O)C(C)C)[C@@H](C)O)C(C)C . Reported IC50: 75
